# system: Cathepsin B (Bos taurus) (UniProt P07688)
# procedure-details: Percent of original compound remaining with cathepsin B after incubation for 4 hrs was determined by HPLC
Starred links: 1 amine or outer side, 2 acyl side, 3 side chain; linkers in the order of their positions; H or OH if unused. Non-standard residues stand in square brackets, D forms with d. Residues, ends and D or L forms follow the SMILES beside them. ξ: configuration not given here. Haic = O=C1[C@@H](N[*:1])CCc2cccc3c2N1[C@H](C(=O)[*:2])C3; NMePhg = CN[C@H](C(=O)O)c1ccccc1; Tic = O=C(O)[C@@H]1Cc2ccccc2CN1; Cha = N[C@@H](CC1CCCCC1)C(=O)O; NMeL = CN[C@@H](CC(C)C)C(=O)O; ξTle = CC(C)(C)C(N)C(=O)O; NMeA = CN[C@@H](C)C(=O)O
measurement-type: % remaining (%)
Note: unit % is implicit; provide only the numeric part.

Qu. Returns the measured % remaining for the input molecule. Input: CSCC[C@@H](NC(=O)[C@H]1Cc2ccccc2CN1C(=O)[C@H](CCCN=C(N)N)NC(=O)[C@H](CC1CCCCC1)NC(C)=O)C(=O)N1CCC(c2ccccc2)[C@@H]1C(=O)N[C@@H](CO)C(=O)N(C)[C@@H](CC(C)C)C(N)=O (some centres undefined)
Ans. 116

Qu. Which value of % remaining has been reported for CC(=O)N[C@@H](CC1CCCCC1)C(=O)N[C@@H](CCCN=C(N)N)C(=O)N1Cc2ccccc2C[C@H]1C(=O)N[C@H]1CCc2cccc3c2N(C1=O)[C@H](C(=O)N[C@@H](CO)C(=O)N(C)[C@@H](C)C(N)=O)C3 (Ac-[Cha]R[Tic][Haic]S[NMeA]-NH2) in the records?
Ans. 109

Qu. Look up % remaining: CSCC[C@@H](NC(=O)[C@H]1Cc2ccccc2CN1C(=O)[C@H](CCCN=C(N)N)NC(=O)[C@H](CC1CCCCC1)NC(C)=O)C(=O)N1CCC(c2ccccc2)[C@@H]1C(=O)N[C@@H](CO)C(=O)N(C)[C@@H](C)C(N)=O (some centres undefined)
Ans. 98

Qu. I'd like to know its % remaining. The molecule in question is CC(=O)N[C@@H](CC1CCCCC1)C(=O)N[C@@H](CCCN=C(N)N)C(=O)N(C)[C@H](C(=O)N[C@H]1CCc2cccc3c2N(C1=O)[C@H](C(=O)N[C@@H](CO)C(=O)NC(C(N)=O)C(C)(C)C)C3)c1ccccc1 (some centres undefined) (Ac-[Cha]R[NMePhg][Haic]S[ξTle]-NH2)
Ans. 126

Qu. Value lookup for % remaining; key = CSCC[C@H](NC(=O)[C@H](C)NC(=O)[C@H](CCCN=C(N)N)NC(=O)[C@H](CC1CCCCC1)NC(C)=O)C(=O)N[C@@H](C)C(=O)N[C@@H](CO)C(=O)N[C@@H](CC(C)C)C(N)=O (Ac-[Cha]RAMASL-NH2)
Ans. 0

Qu. Returns the measured % remaining for the input molecule. Input: CSCC[C@@H](NC(=O)[C@@H](c1ccccc1)N(C)C(=O)[C@H](CCCN=C(N)N)NC(=O)[C@H](CC1CCCCC1)NC(C)=O)C(=O)N(C)[C@@H](C)C(=O)N[C@@H](CO)C(=O)N[C@H](C(N)=O)C(C)(C)C
Ans. 43

Qu. Dear colleague, I am looking for the recorded % remaining of the following molecule: CSCC[C@H](NC(=O)[C@H](C)NC(=O)[C@H](CCCN=C(N)N)NC(=O)[C@H](CC1CCCCC1)NC(C)=O)C(=O)N(C)[C@@H](C)C(=O)N[C@@H](CO)C(=O)N(C)[C@@H](CC(C)C)C(N)=O (Ac-[Cha]RAM[NMeA]S[NMeL]-NH2)
Ans. 0

Qu. # lookup: % remaining of CSCC[C@@H](NC(=O)[C@@H](c1ccccc1)N(C)C(=O)[C@H](CCCN=C(N)N)NC(=O)[C@H](CC1CCCCC1)NC(C)=O)C(=O)N[C@@H](C)C(=O)N[C@@H](CO)C(=O)N[C@H](C(N)=O)C(C)(C)C
Ans. 93

Qu. Requested read-out: % remaining. Entry: CSCCC(NC(=O)[C@H]1Cc2ccccc2CN1C(=O)[C@H](CCCN=C(N)N)NC(=O)[C@H](CC1CCCCC1)NC(C)=O)C(=O)N(C)[C@@H](C)C(=O)N[C@@H](CO)C(=O)N(C)[C@@H](C)C(N)=O (some centres undefined)
Ans. 99

* * *

Could you please report measured Mean relative potency for the items listed next?
# procedure-details: Mean relative potency is the ratio of potencies of 'Ac-(Cha)RAMASL-NH2' and compound, to inhibit MHC class II DRB1*0101
Starred links: 1 amine or outer side, 2 acyl side, 3 side chain; linkers in the order of their positions; H or OH if unused. Non-standard residues stand in square brackets, D forms with d. Residues, ends and D or L forms follow the SMILES beside them. X11 = O=C([C@H](N[*:1])[C@H](O)[C@@H](O)[C@@H](O)CO)[*:2]; X3 = O=C([C@@H](N[*:1])[C@H](O)[C@H](O)[C@@H](O)CO)[*:2]; X4 = O=C([C@H](CC1CC2CCC1CC2)N[*:1])[*:2]; NMeR = CN[C@@H](CCCNC(=N)N)C(=O)O; Cha = N[C@@H](CC1CCCCC1)C(=O)O; NMeS = CN[C@@H](CO)C(=O)O

Qu. Suppose we examine the compound CSCC[C@H](NC(=O)[C@H](C)NC(=O)[C@H](CCCN=C(N)N)NC(=O)[C@H](CC1CCCCC1)NC(C)=O)C(=O)N1CCCC[C@@H]1C(=O)N[C@@H](CO)C(=O)N[C@@H](CC(C)C)C(N)=O ; what Mean relative potency value has been reported?
Ans. 0.55

Qu. So what does the record say about Mean relative potency for CSCC[C@H](NC(=O)[C@H](C)NC(=O)[C@H](CCCN=C(N)N)NC(=O)[C@H](CC1CC2CCC1CC2)NC(C)=O)C(=O)N[C@@H](C)C(=O)N[C@@H](CO)C(=O)N[C@@H](CC(C)C)C(N)=O (some centres undefined) (Ac-[X4]RAMASL-NH2) ?
Ans. 0.68

Qu. Give the measured Mean relative potency of CSCC[C@H](NC(=O)[C@H](CCCN=C(N)N)NC(=O)[C@H](CC1CCCCC1)NC(C)=O)C(=O)N[C@@H](CCSC)C(=O)N[C@H](C=O)[C@H](O)[C@H](O)[C@@H](O)CO (Ac-[Cha]RMM[X3]-aldehyde) .
Ans. 0.12

Qu. # input compound: CSCC[C@H](NC(=O)[C@H](C)NC(=O)[C@H](CCCN=C(N)N)NC(=O)[C@H](CC1CCCCC1)NC(C)=O)C(=O)N[C@@H](C)C(=O)N(C)[C@@H](CO)C(=O)N[C@@H](CC(C)C)C(N)=O (Ac-[Cha]RAMA[NMeS]L-NH2) ; wanted: its Mean relative potency
Ans. 0.5

Qu. # Mean relative potency lookup, item CSCC[C@H](NC(=O)[C@H](C)NC(=O)[C@H](CCCN=C(N)N)NC(=O)[C@H](CC1CCCCC1)NC(C)=O)C(=O)N[C@H](C)C(=O)N[C@@H](CO)C(N)=O
Ans. 0.34

Qu. Quick check: Mean relative potency of CSCC[C@H](NC(=O)[C@H](CCCN=C(N)N)NC(=O)[C@H](CC1CCCCC1)NC(C)=O)C(=O)N[C@@H](CCSC)C(=O)N[C@@H](C=O)[C@H](O)[C@@H](O)[C@@H](O)CO (Ac-[Cha]RMM[X11]-aldehyde) ?
Ans. 0.5

Qu. Name the recorded Mean relative potency for CSCC[C@H](NC(=O)[C@H](C)NC(=O)[C@H](CCCN=C(N)N)NC(=O)[C@H](CC1CCCCC1)NC(C)=O)C(=O)N[C@H](C)C(=O)N[C@@H](CO)C(=O)N[C@@H](CC(C)C)C(=O)N(C)C .
Ans. 1.4

Qu. Look up Mean relative potency for this compound: CC[C@@H](C)[C@H](NC(=O)[C@H](C)NC(=O)[C@H](CCCN=C(N)N)NC(=O)[C@H](CC1CCCCC1)NC(C)=O)C(=O)N[C@@H](C)C(=O)N[C@@H](CO)C(=O)N[C@@H](CC(C)C)C(N)=O
Ans. 0.36

Qu. // Mean relative potency lookup, key: CSCC[C@H](NC(=O)[C@H](C)NC(=O)[C@H](CCCN=C(N)N)N(C)C(=O)[C@H](CC1CCCCC1)NC(C)=O)C(=O)N[C@@H](C)C(=O)N[C@@H](CO)C(=O)N[C@@H](CC(C)C)C(N)=O (Ac-[Cha][NMeR]AMASL-NH2)
Ans. 0.001

* * *

# procedure-details: Mean relative potency is the ratio of potencies of 'Ac-(Cha)RAMASL-NH2' and compound, to inhibit MHC class II DRB1*0101
Non-standard residues stand in square brackets, D forms with d. Residues, ends and D or L forms follow the SMILES beside them. *: point of attachment. Cha = N[C@@H](CC1CCCCC1)C(=O)O; NHCH(CH2OH)2 = OCC(CO)N*
measurement-type: Mean relative potency
The answer should be a number; do not append a unit.

Qu. Which measured Mean relative potency value corresponds to CSCC[C@H](NC(=O)[C@H](CCSC)NC(=O)[C@H](CCCN=C(N)N)NC(=O)[C@H](CC1CCCCC1)NC(C)=O)C(=O)N[C@@H](C)C(=O)NC(CO)CO (Ac-[Cha]RMMA-{NHCH(CH2OH)2}) ?
Ans. 0.68

Qu. Any idea what Mean relative potency was measured for CSCC[C@H](NC(=O)[C@H](C)NC(=O)[C@H](CCCN=C(N)N)NC(=O)[C@H](CC1CCCCC1)NC(C)=O)C(=O)N1CCC[C@@H]1C(=O)N[C@@H](CO)C(=O)N[C@@H](CC(C)C)C(N)=O ?
Ans. 1.37

Qu. // lookup Mean relative potency for CC(=O)N[C@@H](CC1CCCCC1)C(=O)N[C@@H](CCCN=C(N)N)C(=O)N[C@@H](C)C(=O)N[C@@H](CC(C)C)C(=O)N[C@@H](C)C(=O)N[C@@H](CO)C(=O)N[C@@H](CC(C)C)C(N)=O (Ac-[Cha]RALASL-NH2)
Ans. 0.55

Qu. Fill in: Mean relative potency of CSCC[C@H](NC(=O)[C@H](C)NC(=O)[C@H](CCCN=C(N)N)NC(=O)[C@@H](CC1CC2CCC1C2)NC(C)=O)C(=O)N[C@@H](C)C(=O)N[C@@H](CO)C(=O)N[C@@H](CC(C)C)C(N)=O (stereo not given in full) is ___
Ans. 1.31

Qu. Item under review: CSCC[C@H](NC(=O)[C@H](C)NC(=O)[C@H](CCCN=C(N)N)NC(=O)[C@H](CC1CCCCC1)NC(C)=O)C(=O)N[C@H](C)C(N)=O . Reported Mean relative potency?
Ans. 0.25
